Molecular target: pERK1/2 (Thr202/Tyr204), NCI-1H358 (KRAS G12C) (Homo sapiens, UniProt P01116, G12C)
Construct: pERK1/2 HTRF read-out
Sequence (P01116 1-188 isoform P01116-2 G12C): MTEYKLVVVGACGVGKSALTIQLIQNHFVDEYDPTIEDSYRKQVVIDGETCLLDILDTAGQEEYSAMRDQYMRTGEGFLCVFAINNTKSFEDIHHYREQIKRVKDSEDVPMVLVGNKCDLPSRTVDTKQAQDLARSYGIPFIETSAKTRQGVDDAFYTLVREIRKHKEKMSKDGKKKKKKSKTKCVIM
Assay: Assay of intracellular pERK1/2 (Thr202/Tyr204) phosphorylation in NCI-H358 cells (KRAS G12C)
Type: cell-based
Conditions: pERK1/2, 2 days, read-out: NCI-H358 (KRAS G12C) IC50
Source text: Example 2: Assay of intracellular pERK1/2 (Thr202/Tyr204)phosphorylation 1. […] Fluorescence ratio=fluorescence value665 nm/fluorescence value615 nm Inhibition rate (%)=100−((fluorescence ratio of compound well−fluorescence ratio of negative control well)/(fluorescence ratio of positive control well−fluorescence ratio of negative control well))×100 […]
parameter: IC50 (nM)

I. CC(c1cccnc1N)N1c2nc(OC[C@@]34CCCN3C[C@H](F)C4)nc3c(F)c(-c4c5cn[nH]c5cc5cccc(F)c45)nc(c23)OC[C@@H]1C (stereo partly shown)
II. Cc1cc(N)cc(-c2nc3c4c(nc(OC[C@@H]5C[C@@H](F)CN5C)nc4c2F)N(C(C)c2cccnc2N)CCO3)c1C(F)(F)F (single isomer, unassigned) [Compound 80]
Task: Kindly identify which of I and II has the larger recorded IC50 value. Bench note: the answer is the label of the chosen record.
Result: II
(II: 0.5 nM, I: 0.2 nM)

I. CC(c1cccnc1N)N1c2nc(OC[C@@]34CCCN3C[C@H](F)C4)nc3c(F)c(-c4cc(O)cc(Cl)c4C4CC4)nc(c23)OC[C@@H]1C (stereo partly shown)
II. CCC(c1cccnc1N)N1CCOc2nc(-c3cc(N)c(F)c(C)c3C(F)(F)F)c(F)c3nc(OC[C@@]45CCCN4C[C@H](F)C5)nc1c23 (single isomer, unassigned)
Task: Would you kindly point out which of I and II has the smaller IC50 figure? Bench note: the answer is the label of the chosen record.
Result: I

I. [2H]C1([2H])Oc2nc(-c3cc(N)c(F)c(C)c3C(F)(F)F)c(F)c3nc(OC[C@@]45CCCN4C[C@H](F)C5)nc(c23)N(C(C)c2cccnc2N)C1([2H])[2H] (single isomer, unassigned) [Compound 199]
II. CC(c1cccnc1N)N1c2nc(OC[C@@]34CCCN3C[C@H](F)C4)nc3cc(-c4c5ccccc5cc5[nH]nc(C6CC6)c45)nc(c23)OC[C@@H]1C (stereo partly shown)
Task: Would you kindly point out which of I and II has the smaller IC50 figure? Bench note: the answer is the label of the chosen record.
Result: I
